# inhibition at 1 µM listing for each entry below
# Target Entity: panel of 255 wild-type kinases (Homo sapiens, UniProt P24941)
# Assay Name: Kinase panel profiling at 1 µmol/L (MSA or IMAP), percentage inhibition
# Format: biochemical
# Cond: CDK2/CycE1 kinase assay; 1 µmol/L single concentration; read-out: %-inhibition CDK2/CycE1

Substance Smiles	inhibition at 1 µM [%]
CCc1nc(C(N)=O)c(Nc2ccc(N3CCC(N4CCN(C)CC4)CC3)c(OC)c2)nc1NC1CCOCC1	17
C=CC(=O)N1CCC([C@@H]2CCNc3c(C(N)=O)c(-c4ccc(Oc5ccccc5)cc4)nn32)CC1	-15
C[C@H]1Oc2cc(cnc2N)-c2c(nn(C)c2C#N)CN(C)C(=O)c2ccc(F)cc21	-6.33
C[C@H](Nc1ncnc2nc[nH]c12)c1cc2cccc(Cl)c2c(=O)n1-c1ccccc1	-11
Cc1cc(Nc2ncnc3ccc(NC4=NC(C)(C)CO4)cc23)ccc1Oc1ccn2ncnc2c1	-36
CCn1c(=O)c(-c2cc(NC(=O)Nc3ccccc3)c(F)cc2Br)cc2cnc(NC)cc21	-12
CO[C@]1(C(=O)N[C@@H](C)c2ccc(-n3cc(F)cn3)nc2)CC[C@H](c2nc(C)cc(Nc3cc(C)[nH]n3)n2)CC1	58

---

# Target Entity: panel of 255 wild-type kinases (Homo sapiens)
# Assay Name: Kinase panel profiling at 1 µmol/L (MSA or IMAP), percentage inhibition
# Assay type: biochemical
# Cond: AKT1 kinase assay; 1 µmol/L single concentration; read-out: %-inhibition AKT1
Quantity Name: inhibition at 1 µM (%)

Substance Smiles	Recorded Measurement
CN1CCN(c2ccc(C(=O)Nc3n[nH]c4ccc(Cc5cc(F)cc(F)c5)cc34)c(NC3CCOCC3)c2)CC1	-9
O=C(Nc1cnn2ccc(N3CCC[C@@H]3c3cc(F)ccc3F)nc12)N1CC[C@H](O)C1	-15
Cn1cnc2c(F)c(Nc3ccc(Br)cc3F)c(C(=O)NOCCO)cc21	-5
C[C@H](Nc1ncnc2nc[nH]c12)c1cc2cccc(Cl)c2c(=O)n1-c1ccccc1	-6
Cn1cc(-c2cc3c(N4CCN(c5ncc([C@@](C)(N)c6ccc(F)cc6)cn5)CC4)ncnn3c2)cn1	-9
CCN1CCN(c2ccc(Nc3cc(N(C)C(=O)Nc4c(Cl)c(OC)cc(OC)c4Cl)ncn3)cc2)CC1	-12
COC(=O)N[C@@H](C)CNc1nccc(-c2cn(C(C)C)nc2-c2cc(Cl)cc(NS(C)(=O)=O)c2F)n1	-2

---

# Test system: 134 cancer cell lines
# Assay Name: Cell viability assay (ATPlite, 72 hours), IC50 on cancer cell line panel
# Cond: Hs766T, read-out: IC50 in cell proliferation assay, Hs 766T cell line
pIC50: −log10 of the molar value.
# pIC50 listing for each entry below
Quantity Name: pIC50

Molecule	Target Entity	Quantity Name	Reported Relation	Recorded Measurement
COc1ccc(CN2C3CC2CN(c2ccc(-c4cc(OCC(C)(C)O)cn5ncc(C#N)c45)cn2)C3)cn1 [selpercatinib]	134 cancer cell lines	pIC50	=	5.30
CC(=O)Nc1cccc(-n2c(=O)n(C3CC3)c(=O)c3c(Nc4ccc(I)cc4F)n(C)c(=O)c(C)c32)c1 [trametinib]	134 cancer cell lines	pIC50	=	8.63
Cc1cc(Nc2ncnc3ccc(NC4=NC(C)(C)CO4)cc23)ccc1Oc1ccn2ncnc2c1 [tucatinib]	134 cancer cell lines	pIC50	<	4.50
Cn1cnc2c(F)c(Nc3ccc(Br)cc3Cl)c(C(=O)NOCCO)cc21 [selumetinib]	134 cancer cell lines	pIC50	=	7.66
